target: SARS-CoV-2 3CL protease (Severe acute respiratory syndrome coronavirus 2); experiment: biochemical; assay type: biochemical; conditions: 50 μM compound

| COMPOUND | SYSTEM_UNDER_TEST | UNITS_SYMBOL | inhibition at 50 µM |
| --- | --- | --- | --- |
| COc1cccc2sc(N3C(=O)CSC3c3ccc([N+](=O)[O-])cc3)nc12 (stereo not shown) [e2] | SARS-CoV-2 3CL protease (Severe acute respiratory syndrome coronavirus 2) | % | 31.3 |
| O=C1CSC(c2ccc(Br)cc2)N1c1nc2ccc(C34CC5CC(CC(C5)C3)C4)cc2s1 (stereo not shown) | SARS-CoV-2 3CL protease (Severe acute respiratory syndrome coronavirus 2) | % | 45 |
| O=C1CSC(c2ccc(F)cc2)N1c1nc2ccc(OC(F)(F)F)cc2s1 (stereo not shown) | SARS-CoV-2 3CL protease (Severe acute respiratory syndrome coronavirus 2) | % | 25.2 |
| O=C1CSC(c2ccc(O)cc2)N1c1nc2ccc(Cl)cc2s1 (stereo not shown) | SARS-CoV-2 3CL protease (Severe acute respiratory syndrome coronavirus 2) | % | 7.87 |
| O=C1CSC(c2c(F)cccc2Cl)N1c1nc2cccc(Cl)c2s1 (stereo not shown) | SARS-CoV-2 3CL protease (Severe acute respiratory syndrome coronavirus 2) | % | 91.3 |
| O=C1CSC(c2ccc(F)cc2)N1c1nc2ccc(Cl)cc2s1 (stereo not shown) | SARS-CoV-2 3CL protease (Severe acute respiratory syndrome coronavirus 2) | % | 88 |
| N#Cc1ccc2nc(N3C(=O)CSC3c3c(F)cccc3Cl)sc2c1 (stereo not shown) | SARS-CoV-2 3CL protease (Severe acute respiratory syndrome coronavirus 2) | % | 100 |
| O=C1CSC(c2c(F)cccc2Cl)N1c1nc2ccc(C34CC5CC(CC(C5)C3)C4)cc2s1 (stereo not shown) | SARS-CoV-2 3CL protease (Severe acute respiratory syndrome coronavirus 2) | % | 2.79 |
| O=C1CSC(c2ccc(Cl)cc2)N1c1nc2ccc(OC(F)(F)F)cc2s1 (stereo not shown) | SARS-CoV-2 3CL protease (Severe acute respiratory syndrome coronavirus 2) | % | 3.04 |
| O=C1CSC(c2ccc(F)cc2)N1c1nc2ccc(F)cc2s1 (stereo not shown) | SARS-CoV-2 3CL protease (Severe acute respiratory syndrome coronavirus 2) | % | 0 |
| O=C1CSC(c2ccc(F)cc2)N1c1nc2c(Cl)cccc2s1 (stereo not shown) [d1] | SARS-CoV-2 3CL protease (Severe acute respiratory syndrome coronavirus 2) | % | 6.72 |
| O=C1CSC(c2c(F)cccc2F)N1c1nc2cccc(Cl)c2s1 (stereo not shown) | SARS-CoV-2 3CL protease (Severe acute respiratory syndrome coronavirus 2) | % | 0 |
| Cc1cc(C23CC4CC(CC(C4)C2)C3)cc2sc(N3C(=O)CSC3c3c(F)cccc3F)nc12 (stereo not shown) | SARS-CoV-2 3CL protease (Severe acute respiratory syndrome coronavirus 2) | % | 100 |

----------
Parameter inhibition of cellular viability: see the listing below.
system: human normal MRC-5 cells; assay: MTT cell viability assay; type: cell-based; settings: MRC-5, 10 μM, 48 h
ASSAY_ENDPOINT: inhibition of cellular viability (%)

| COMPOUND | SYSTEM_UNDER_TEST | MEASUREMENT |
| --- | --- | --- |
| Cc1cc(C23CC4CC(CC(C4)C2)C3)cc2sc(N3C(=O)CSC3c3c(F)cccc3F)nc12 (centres unmarked) | human normal MRC-5 cells | 100 |
| O=C1CSC(c2ccc(F)cc2)N1c1nc2ccc(Cl)cc2s1 (centres unmarked) | human normal MRC-5 cells | 80.3 |
| O=C1CSC(c2c(F)cccc2Cl)N1c1nc2cccc(Cl)c2s1 (centres unmarked) | human normal MRC-5 cells | 100 |
| O=C1CSC(c2ccc(Br)cc2)N1c1nc2ccc(C34CC5CC(CC(C5)C3)C4)cc2s1 (centres unmarked) | human normal MRC-5 cells | 100 |
| N#Cc1ccc2nc(N3C(=O)CSC3c3c(F)cccc3Cl)sc2c1 (centres unmarked) | human normal MRC-5 cells | 100 |
